# Tested on: TT cells (MTC, RET C634W)
# experimental details: Inhibition of proliferation of TT cells (CellTiter-Glo, 72 h)
# Type: cell-based
# measurement context: Homo sapiens
pIC50: −log10 of the molar value.
Use 8 as the dividing line for pIC50, with the line itself on the Met side and lower values as Not met.

{"columns": ["structure as smiles", "label value"],
 "data": [
  ["COc1ccc(CN2C3CC2CN(c2ccc(-c4cc(OCC56CC(C#N)(C5)C6)cn5ncc(C#N)c45)cn2)C3)cn1", "Not met"],
  ["CC1(NC(=O)c2ncccc2Cl)CCN(c2ccc(-c3cc(OCC4(C#N)CC4)cn4ncc(C#N)c34)cn2)CC1", "Not met"],
  ["COc1ccc(CN2C3CC2CN(c2ccc(-c4cc(N5CC(C)(C#N)C5)cn5ncc(C#N)c45)cn2)C3)cn1", "Met"],
  ["COc1ccc(CN2C3CC2CN(c2ccc(-c4cc(C#CC5(O)COC5)cn5ncc(C#N)c45)cn2)C3)cn1", "Not met"]
]}

Quick check, pIC50 >= 8? COc1ncc(CN2C3CC2CN(c2ccc(-c4cc(C#CC(C)(C)O)cn5ncc(C#N)c45)cn2)C3)cc1F
Not met

And then COc1ccc(CN2C3CC2CN(c2ccc(-c4cc(C#CC5(O)CCC5)cn5ncc(C#N)c45)cn2)C3)cn1 , what is it?
Not met

And then CC(C)(O)C#Cc1cc(-c2ccc(N3CC4CC(C3)N4Cc3ccc(OC4CC4)nc3)nc2)c2c(C#N)cnn2c1 , what is it?
Not met

And then COc1ccc(CN2C3CC2CN(c2ccc(-c4cc(N5CC6(C5)CC(C)(O)C6)cn5ncc(C#N)c45)cn2)C3)cn1 , what is it?
Met

----------
# experimental details: Thermodynamic solubility in different media at 37° C.
# Format: physicochemical
# measurement context: FeSSIF (non-fasting artificial simulated intestinal fluid), thermodynamic from solid, FeSSIF, 37° C., read-out: Solubility of crystal form I
property: solubility at 4 h (µg/mL)
Entry rule: numbers only, all in µg/mL.

# solubility at 4 h lookup, item C#C[C@@](C)(O)COc1cc(-c2ccc(N3CC4CC(C3)N4Cc3ccc(OC)nc3)nc2)c2c(C#N)cnn2c1 [crystal form I]
90

----------
# target system: RET kinase (Homo sapiens, UniProt P07949)
# Construct: purchased Carna 08-159
# Sequence (P07949 29-1114): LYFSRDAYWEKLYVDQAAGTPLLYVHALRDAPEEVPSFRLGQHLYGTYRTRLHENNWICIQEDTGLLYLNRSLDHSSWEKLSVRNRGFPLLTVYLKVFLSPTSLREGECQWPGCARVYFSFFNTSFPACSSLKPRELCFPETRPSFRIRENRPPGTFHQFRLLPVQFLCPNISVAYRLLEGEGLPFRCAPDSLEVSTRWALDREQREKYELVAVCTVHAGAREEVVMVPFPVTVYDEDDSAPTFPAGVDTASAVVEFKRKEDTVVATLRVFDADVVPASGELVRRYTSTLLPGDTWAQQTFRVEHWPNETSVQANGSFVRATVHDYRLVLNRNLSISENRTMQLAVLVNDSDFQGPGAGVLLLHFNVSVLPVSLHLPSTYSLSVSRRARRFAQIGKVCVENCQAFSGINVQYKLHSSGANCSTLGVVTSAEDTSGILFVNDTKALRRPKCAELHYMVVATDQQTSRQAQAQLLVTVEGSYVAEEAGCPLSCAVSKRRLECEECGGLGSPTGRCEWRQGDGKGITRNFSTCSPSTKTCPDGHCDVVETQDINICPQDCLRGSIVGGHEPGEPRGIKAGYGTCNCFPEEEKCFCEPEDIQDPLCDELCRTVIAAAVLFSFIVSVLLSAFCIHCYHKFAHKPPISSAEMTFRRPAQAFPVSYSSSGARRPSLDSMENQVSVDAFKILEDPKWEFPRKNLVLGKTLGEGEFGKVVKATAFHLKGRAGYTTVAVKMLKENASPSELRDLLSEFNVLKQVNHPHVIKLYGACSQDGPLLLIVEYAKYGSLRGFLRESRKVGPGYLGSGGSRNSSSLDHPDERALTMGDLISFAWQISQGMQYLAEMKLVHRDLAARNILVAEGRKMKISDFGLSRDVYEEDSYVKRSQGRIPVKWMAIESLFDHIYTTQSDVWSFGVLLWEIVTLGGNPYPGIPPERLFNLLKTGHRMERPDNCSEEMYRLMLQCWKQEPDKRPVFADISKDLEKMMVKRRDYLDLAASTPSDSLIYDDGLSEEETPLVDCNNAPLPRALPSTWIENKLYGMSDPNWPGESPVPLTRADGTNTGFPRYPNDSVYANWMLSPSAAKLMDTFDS
# experimental details: HTRF kinase activity inhibition, RET wild-type
# Type: biochemical
# measurement context: ATP at Km
property: pIC50
pIC50 (log units): -log10 of the concentration in mol/L.

{"columns": ["molecule", "experimental result"],
 "data": [
  ["COc1ccc(CN2C3CC2CN(c2ccc(-c4cc(OCC[S+](C)[O-])cn5ncc(C#N)c45)cn2)C3)cn1 (stereo not shown)", 9.33],
  ["COc1ncc(CN2C3CC2CN(c2ccc(-c4cc(C#CC(C)(C)O)cn5ncc(C#N)c45)cn2)C3)cc1F", 9.51],
  ["COCC(C)(O)C#Cc1cc(-c2ccc(N3CC4CC(C3)N4Cc3cnc(OC)c(F)c3)nc2)c2c(C#N)cnn2c1 (stereo not shown)", 9.46]
]}

Alright, here's another molecule for you.
# pIC50 lookup, item COc1ccc(CN2C3CC2CN(c2ccc(-c4cc(OCC5(C#N)CC(F)(F)C5)cn5ncc(C#N)c45)cn2)C3)cn1
8.96
